ASSAYED_SYSTEM: Neuropeptide Y receptor type 2 (Homo sapiens, UniProt P49146); further: in other assays of this panel Not Active means under 50% inhibition at 10 µM
Sequence (P49146 whole entry): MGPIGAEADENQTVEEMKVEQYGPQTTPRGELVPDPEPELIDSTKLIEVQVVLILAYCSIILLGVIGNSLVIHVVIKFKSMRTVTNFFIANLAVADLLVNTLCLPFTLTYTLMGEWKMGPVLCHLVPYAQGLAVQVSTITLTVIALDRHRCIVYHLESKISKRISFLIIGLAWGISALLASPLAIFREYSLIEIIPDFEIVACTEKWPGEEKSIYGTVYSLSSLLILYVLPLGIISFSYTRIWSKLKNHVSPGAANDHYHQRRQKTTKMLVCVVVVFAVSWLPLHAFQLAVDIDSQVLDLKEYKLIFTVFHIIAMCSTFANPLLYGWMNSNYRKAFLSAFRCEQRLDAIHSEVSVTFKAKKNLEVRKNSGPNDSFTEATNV
Assay type: cell membranes, Membrane
CONDITIONS: kan-ts
ENDPOINT_LABEL: IC50

// solved cases for IC50 follow
1. COc1ccc2[nH]c([S+]([O-])Cc3ncc(C)c(OC)c3C)nc2c1 (stereo not given): Not Active
2. C[N+](C)(C)CCO.[Cl-] [CHOLINE CHLORIDE]: Not Active
3. COC(=O)C1=C(C)NC(C)=C(C(=O)OCC(C)C)C1c1ccccc1[N+](=O)[O-] (stereo not given): Not Active
4. CC(C)C[C@H](NC(=O)[C@@H](O)[C@H](N)Cc1ccccc1)C(=O)O: Not Active
5. Cc1ccccc1C(=O)N1CCC(Cc2ccccc2)CC1: Not Active

Recorded result, CCn1cc(C(=O)O)c(=O)c2cc(F)c(N3CCN(C)CC3)cc21 , IC50: Not Active

Data point: Cc1cc2cc3c(C)cc(=O)oc3c(C)c2o1 ; IC50 = Not Active

// IC50 lookup, molecule = O=C(N[C@H](CO)[C@H](O)c1ccc([N+](=O)[O-])cc1)C(Cl)Cl , result: Not Active

Documented IC50 of CC(=O)Nc1cccc(O)c1 : Not Active

Value of IC50 reported for the molecule C[C@]12CC[C@@H]3c4ccc(O)cc4CC[C@H]3[C@@H]1CC[C@@H]2O is Not Active

Record summary for COCCCOc1ccnc(C[S+]([O-])c2nc3ccccc3[nH]2)c1C (stereo not given) : reported IC50 = Not Active

Recorded result, C[C@H]1C[C@H]2[C@@H]3CCC4=CC(=O)C=C[C@]4(C)[C@@]3(Cl)[C@@H](O)C[C@]2(C)[C@@]1(O)C(=O)CO , IC50: Not Active

molecule Cc1nccn1CC1CCc2c(c3ccccc3n2C)C1=O (stereo not given) , IC50 observed: Not Active

Form: molecule = CC(C)(C(=O)c1cccnc1)c1cccnc1 ; IC50 = Not Active

Recorded values, source ChEMBL document CHEMBL1909046.
